pKi: −log10 of the molar value.
Target or system Melanocortin receptor 5 (Homo sapiens, UniProt P33032); metric pKi; compiled from varied reports.
recorded-metric: pKi

Consider the following illustrative entries.
compound	assay-result
O=C(N[C@H](Cc1ccc(Cl)cc1)C(=O)N1CCN(c2ccccc2CNCCc2cccs2)CC1)c1cccnc1	6.14
COc1cc(Cl)ccc1CC(C)C(=O)N1CCN(c2ccc(C(F)(F)F)cc2[C@@H](N)CC(C)C)CC1 (stereo partly drawn)	7.07
CNCC(=O)N[C@H](Cc1ccc(Cl)cc1Cl)C(=O)N1CCN(c2ccccc2C(O)CC(C)C)CC1 (stereo partly drawn)	5.74
Cc1ccc([C@@H](CC(C)C)NC(=O)CCN(C)C)c(N2CCN(C(=O)[C@H](C)Cc3ccc(Cl)cc3Cl)CC2)n1	5.92
COCC(=O)N[C@H]1Cc2cc3c(c(c2)Cc2ccc(cc2)Oc2cccc(c2)CN(CCCN2CCN(CCCN)CC2)C1=O)OCOC3	5.81
CCN(CC)CC(c1ccccc1F)N1CCN(C(=O)[C@@H](Cc2ccc(Cl)cc2)NC(=O)c2cc3ccccc3cn2)CC1 (stereo partly drawn)	6.04

A. O=C(N[C@H](Cc1ccc(Cl)cc1)C(=O)N1CC[N+]([O-])(c2ccccc2)CC1)C1Cc2ccccc2CN1 (stereo partly drawn)
B. CC(C)C[C@H](N)c1cccc(F)c1N1CCN(C(=O)CCc2ccc(Cl)cc2Cl)CC1
Could you please tell me which of these two has the higher pKi: A or B ? When you have decided, please share the label of that item. B
(B: 5.92, A: 4.03)

a. CCN(CC)CC(c1ccccc1F)N1CCN(C(=O)[C@@H](Cc2ccc(Cl)cc2)NC(=O)C2Cc3ccccc3C(C)(C)N2)CC1 (stereo partly drawn)
b. CCN(CC)CC(c1ccccc1F)N1CCN(C(=O)[C@@H](Cc2ccc(Cl)cc2)NC(=O)CC2NCCc3ccccc32)CC1 (stereo partly drawn)
Of the pair a and b , name the member with the lesser recorded pKi. Answer with the label corresponding to your selection. b
(b: 6.04, a: 6.38)
